Could you please report measured melting point for the items listed next?
Where a name gives a salt, the structure may show the parent alone.
Give the value, in units of °C, as a plain number.

Sample COc1cc2c(cc1Cl)C(CCCN1CCNCC1)(c1ccccc1F)C(=O)N2S(=O)(=O)c1ccccc1 (stereo not drawn) (as salt: HCl) [compound 26] — what was its melting point?
238

Next compound up: COc1ccc(S(=O)(=O)N2C(=O)C(CCCN3CCNCC3)(c3ccccc3F)c3cc(F)c(OC)cc32)cc1C (stereo not drawn) (as salt: HCl) [compound 107]
152

Next compound up: COc1cc2c(cc1Cl)C(CCCN1CCN(C)CC1)(c1ccccc1F)C(=O)N2S(=O)(=O)c1ccc(OC(F)(F)C(F)F)cc1.Cl (stereo not drawn)
164

Next compound up: COc1cc2c(cc1Cl)C(CCCCCN1CCCCC1)(c1ccccc1F)C(=O)N2S(=O)(=O)c1ccc(OC(C)C)cc1 (stereo not drawn) (as salt: HCl)
203

Next compound up: CCOc1ccc(S(=O)(=O)N2C(=O)C(CCCN3CC[C@@H](N)C3)(c3ccccc3F)c3cc(Cl)c(OC)cc32)cc1OC (stereo partly drawn) (as salt: HCl) [Compound No. 6]
210

Next compound up: CCN(CC)C(=O)Nc1ccc(S(=O)(=O)N2C(=O)C(CCCN(C)C)(c3ccccc3F)c3cc(C)c(OC)cc32)cc1C (stereo not drawn)
98

Next compound up: CCOc1ccc(S(=O)(=O)N2C(=O)C(CCCN3CC[C@H](N)C3)(c3ccccc3F)c3cc(Cl)c(OC)cc32)cc1OC (stereo partly drawn) (as salt: HCl) [Compound No. 7]
238

Next compound up: CCOc1ccc(S(=O)(=O)N2C(=O)C(CCCN3CCC(F)(F)CC3)(c3ccccc3F)c3cc(Cl)c(OC)cc32)cc1OC (stereo not drawn) [compound 9]
88

Next compound up: COC(=O)c1ccc(F)c(C2(CCCN3CCN(C)CC3)C(=O)N(S(=O)(=O)c3ccc(OC(C)C)cc3)c3cc(OC)c(Cl)cc32)c1 (stereo not drawn)
100

Next compound up: CCCCOc1ccc(S(=O)(=O)N2C(=O)C(CCCN3CCN(C)CC3)(c3ccccc3F)c3cc(Cl)c(OC)cc32)cc1 (stereo not drawn) (as salt: HCl)
156

Next compound up: COc1cc2c(cc1OC)C(CCCN1CCN(C)CC1)(c1ccccc1F)C(=O)N2S(=O)(=O)c1ccc(OC(C)C)c(F)c1 (stereo not drawn)
74

Next compound up: COc1cc2c(cc1Cl)C(CCCN1CCNCC1)(c1ccccc1F)C(=O)N2S(=O)(=O)c1ccc(OC(F)F)cc1 (stereo not drawn) (as salt: HCl) [compound 24]
218

Next compound up: CCOc1ccc(S(=O)(=O)N2C(=O)C(CCCN3CCNCC3)(c3ccccc3F)c3cc(Cl)c(OC)cc32)cc1 (stereo not drawn) (as salt: HCl) [compound 22]
213

Next compound up: COc1cc2c(cc1Cl)C(CCCN1CCNCC1)(c1ccccc1F)C(=O)N2S(=O)(=O)c1ccc(C)c(C)c1 (stereo not drawn) (as salt: HCl) [compound 20]
192

Next compound up: COc1cc2c(cc1F)C(CCCN1CCN(C)CC1)(c1ccccc1F)C(=O)N2S(=O)(=O)c1ccc(OC(C)C)c(F)c1 (stereo not drawn)
72

Next compound up: COc1ccc(S(=O)(=O)N2C(=O)C(CCCN3CCCCC3)(c3ccccc3F)c3cc(Cl)c(OC)cc32)c(OC)c1 (stereo not drawn)
105

Next compound up: CCOc1ccc(S(=O)(=O)N2C(=O)C(CCCN3CCC(O)CC3)(c3ccccc3F)c3cc(Cl)c(OC)cc32)cc1OC (stereo not drawn)
102

Next compound up: COc1cc2c(cc1Cl)C(CCCN1CCNCC1)(c1ccccc1F)C(=O)N2S(=O)(=O)c1ccc(O)cc1 (stereo not drawn) (as salt: HCl) [Compound No. 46]
292

Next compound up: COc1ccc(S(=O)(=O)N2C(=O)C(CCCN3CCN(C)CC3)(c3ccccc3F)c3cc(Cl)c(OC)cc32)c(OC)c1 (stereo not drawn)
123

Next compound up: COc1cc2c(cc1Cl)C(CCCCCN(C)C)(c1ccccc1F)C(=O)N2S(=O)(=O)c1ccc(OC(C)C)cc1 (stereo not drawn) (as salt: HCl)
125

Next compound up: COc1cc2c(cc1Cl)C(CCCN1CCN(C)CC1)(c1ccccc1F)C(=O)N2S(=O)(=O)c1ccc(O)cc1 (stereo not drawn)
169

Next compound up: COc1ccc(S(=O)(=O)N2C(=O)C(CCCN3CCN(C)CC3)(c3ccccc3F)c3cc(OC)c(OC)cc32)cc1C (stereo not drawn)
78

Next compound up: CCOc1ccc(S(=O)(=O)N2C(=O)C(CCCN3CCNCC3)(c3ccccc3F)c3cc(Cl)c(OC)cc32)cc1OC (stereo not drawn) (as salt: HCl) [compound 18]
220

Next compound up: COc1cc2c(cc1Cl)C(CCCN1CC[C@H](N)C1)(c1ccccc1F)C(=O)N2S(=O)(=O)c1ccc(OC(C)C)cc1 (stereo partly drawn) (as salt: HCl) [Compound No. 5]
206
